- System: Klebsiella pneumoniae
- assay.overview: Antibacterial activity against clinical isolate carbapenem and polymyxin resistant Klebsiella pneumoniae Koprana 100650661:1 after 18 hrs by 2 fold serial dilution method
- Assay type: functional
- condition.context: Koprana 100650661:1, 18 h
Numbered stars: 1 amine (or outer) side, 2 acyl side, 3 side chain; on linkers, the order of the positions; unused ones are H or OH. Bridge positions count the residues as written; N and C are the ends. Square brackets hold non-standard residues; d marks the D form. Peptide text beside a SMILES is read from it. * marks the point of attachment. Phe(4-NH2) = Nc1ccc(C[C@H](N)C(=O)O)cc1; X1 = c1ccc(-c2ccc(N*)cc2)cc1; NH(2-ClPh) = Clc1ccccc1N*; dDab = NCC[C@@H](N)C(=O)O; hSer = N[C@@H](CCO)C(=O)O; Octanoyl = CCCCCCCC(=O)*; Dab = NCC[C@H](N)C(=O)O; CO = O=C([*:1])[*:2]
# MIC per record follows

Examples with answers:
{"molecule": "CC(C)C[C@@H]1NC(=O)[C@@H](Cc2ccccc2)NC(=O)[C@H](CCN)NC(=O)[C@@H](NC(=O)[C@@H](CCN)NC(=O)[C@@H](NC(=O)[C@H](CCN)NC(=O)Nc2ccccc2Cl)[C@@H](C)O)CCNC(=O)[C@H]([C@@H](C)O)NC(=O)[C@H](CCN)NC(=O)[C@H](CCN)NC1=O ({NH(2-ClPh)-CO}-[Dab]T[dDab][Dab][Dab][dF]L[Dab][Dab]T; lactam 4-C)", "readout.name": "MIC", "result": "> 32 µg/mL"}
{"molecule": "CCCCCCCC(=O)N[C@@H](CCN)C(=O)N[C@H](C(=O)N[C@@H](CCN)C(=O)N[C@H]1CCNC(=O)[C@H]([C@@H](C)O)NC(=O)[C@H](CCN)NC(=O)[C@H](CCN)NC(=O)[C@H](CC(C)C)NC(=O)[C@@H](Cc2ccccc2)NC(=O)[C@H](Cc2ccc(N)cc2)NC1=O)[C@@H](C)O (Octanoyl-[Dab]T[Dab][Dab][Phe(4-NH2)][dF]L[Dab][Dab]T; lactam 4-C)", "readout.name": "MIC", "result": "> 32 µg/mL"}
{"molecule": "CCCCCCCC(=O)N[C@@H](CCN)C(=O)N[C@H](C(=O)N[C@@H](CCN)C(=O)N[C@H]1CCNC(=O)[C@H]([C@@H](C)O)NC(=O)[C@H](CCN)NC(=O)[C@H](CCCNC(=N)N)NC(=O)[C@H](CC(C)C)NC(=O)[C@@H](Cc2ccccc2)NC(=O)[C@H](CCN)NC1=O)[C@@H](C)O", "readout.name": "MIC", "result": "> 32 µg/mL"}
{"molecule": "CCCCCCCC(=O)N[C@@H](CCN)C(=O)N[C@H](C(=O)N[C@@H](CCN)C(=O)N[C@H]1CCNC(=O)[C@H]([C@@H](C)O)NC(=O)[C@H](CCN)NC(=O)[C@H](CCN)NC(=O)[C@H](CC(C)C)NC(=O)[C@@H](Cc2ccccc2)NC(=O)[C@H](CCO)NC1=O)[C@@H](C)O (Octanoyl-[Dab]T[Dab][Dab][hSer][dF]L[Dab][Dab]T; lactam 4-C)", "readout.name": "MIC", "result": "> 32 µg/mL"}
{"molecule": "CCCCCCCC(=O)N[C@@H](CCN)C(=O)N[C@H](C(=O)N[C@H](CCN)C(=O)N[C@H]1CCNC(=O)[C@H]([C@@H](C)O)NC(=O)[C@H](CCN)NC(=O)[C@H](CCN)NC(=O)[C@H](CC(C)C)NC(=O)[C@@H](Cc2ccccc2)NC(=O)[C@H](CCN)NC1=O)[C@@H](C)O (Octanoyl-[Dab]T[dDab][Dab][Dab][dF]L[Dab][Dab]T; lactam 4-C)", "readout.name": "MIC", "result": "> 32 µg/mL"}

Now turn to the next molecule.
Which MIC is reported for this molecule? CC(C)C[C@@H]1NC(=O)[C@@H](Cc2ccccc2)NC(=O)[C@H](CCN)NC(=O)[C@@H](NC(=O)[C@H](CCN)NC(=O)[C@@H](NC(=O)[C@H](CCN)NC(=O)Nc2ccc(-c3ccccc3)cc2)[C@@H](C)O)CCNC(=O)[C@H]([C@@H](C)O)NC(=O)[C@H](CCN)NC(=O)[C@H](CCN)NC1=O ({X1-CO}-[Dab]T[Dab][Dab][Dab][dF]L[Dab][Dab]T; lactam 4-C) 16 µg/mL

The measurements presented in this section are drawn from ChEMBL document CHEMBL3774373.
